Test system: Fibroblast
Assay: Multiplex assay against human fibroblast
Assay type: toxicity, cell-based
Details: 48 h, 1 µM, compound concentration 1 uM, replicate 2
measuredEndpoint: Population Fragmented Nuclei (%)
Respond with the bare value in %.

Known Population Fragmented Nuclei (%) results, listed for orientation:
molecule	observedResult
C=C1/C(=C\C=C2/CCC[C@]3(C)[C@@H]([C@H](C)/C=C/[C@H](C)C(C)C)CC[C@@H]23)C[C@@H](O)C[C@@H]1O	27
O=C(Nc1ccc(-c2ccnc(Nc3ccc(N4CCOCC4)cc3)n2)cc1)[C@@H]1CCCN1	18
CN(C)C(=O)C(CCN1CCC(O)(c2ccc(Cl)cc2)CC1)(c1ccccc1)c1ccccc1.Cl [LOPERAMIDE HYDROCHLORIDE]	34
O=C1N/C(=N/c2ccccc2F)S/C1=C\c1ccc(C(=O)O)cc1	26
CCN1CCN(Cc2ccc(Nc3ncc(F)c(-c4cc(F)c5nc(C)n(C(C)C)c5c4)n3)nc2)CC1.CS(=O)(=O)O	53
Cc1cn(-c2cc(NC(=O)c3ccc(C)c(Nc4nccc(-c5cccnc5)n4)c3)cc(C(F)(F)F)c2)cn1	19
CCOC(=O)c1c(C)[nH]c2ccc3c(c12)CN1CCc2cc(OC)ccc2C1O3 (stereo not drawn)	33

Fill in the blank: the reported Population Fragmented Nuclei (%) of `CCOc1cc2ncc(C#N)c(Nc3ccc(OCc4ccccn4)c(Cl)c3)c2cc1NC(=O)/C=C/CN(C)C` is ____.
20
